- TARGET OR SYSTEM: GAK (human) (UniProt O14976)
- Sequence (O14976 whole entry, looked up): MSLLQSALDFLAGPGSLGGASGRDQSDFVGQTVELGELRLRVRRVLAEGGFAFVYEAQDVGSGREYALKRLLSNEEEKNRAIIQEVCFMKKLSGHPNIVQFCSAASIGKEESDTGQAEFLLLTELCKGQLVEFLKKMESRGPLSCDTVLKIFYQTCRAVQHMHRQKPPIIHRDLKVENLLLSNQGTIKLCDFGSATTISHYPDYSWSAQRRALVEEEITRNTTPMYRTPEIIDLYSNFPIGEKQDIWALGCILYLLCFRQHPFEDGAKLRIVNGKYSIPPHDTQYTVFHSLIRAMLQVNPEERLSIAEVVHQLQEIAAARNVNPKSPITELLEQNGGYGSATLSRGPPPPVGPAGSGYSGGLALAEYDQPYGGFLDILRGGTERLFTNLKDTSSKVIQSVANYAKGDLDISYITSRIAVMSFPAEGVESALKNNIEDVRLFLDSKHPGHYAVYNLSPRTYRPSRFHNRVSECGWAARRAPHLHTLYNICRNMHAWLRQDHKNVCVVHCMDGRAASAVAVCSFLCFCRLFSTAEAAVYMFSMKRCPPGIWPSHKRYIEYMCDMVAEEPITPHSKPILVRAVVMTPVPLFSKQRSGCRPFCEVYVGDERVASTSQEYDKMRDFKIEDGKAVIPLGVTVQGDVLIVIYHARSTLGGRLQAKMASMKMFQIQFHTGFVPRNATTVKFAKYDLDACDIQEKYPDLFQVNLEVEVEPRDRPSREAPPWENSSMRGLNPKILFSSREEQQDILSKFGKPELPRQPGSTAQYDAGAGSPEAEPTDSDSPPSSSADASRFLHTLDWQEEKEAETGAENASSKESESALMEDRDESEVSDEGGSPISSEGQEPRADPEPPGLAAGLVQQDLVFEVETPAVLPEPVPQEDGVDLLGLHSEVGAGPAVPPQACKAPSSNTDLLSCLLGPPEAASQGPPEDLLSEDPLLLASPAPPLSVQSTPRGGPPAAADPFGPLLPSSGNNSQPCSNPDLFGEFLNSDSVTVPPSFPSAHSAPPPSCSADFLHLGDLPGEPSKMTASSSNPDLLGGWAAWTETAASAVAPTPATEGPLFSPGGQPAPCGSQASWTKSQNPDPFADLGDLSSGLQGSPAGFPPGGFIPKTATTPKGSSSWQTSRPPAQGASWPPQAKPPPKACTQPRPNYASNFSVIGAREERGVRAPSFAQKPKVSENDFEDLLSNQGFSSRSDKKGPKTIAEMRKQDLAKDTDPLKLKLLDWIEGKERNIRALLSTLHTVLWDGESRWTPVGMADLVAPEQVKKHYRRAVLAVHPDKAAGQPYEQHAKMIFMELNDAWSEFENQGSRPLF
- TEST: KINOMEscan competition binding
- COND: compound 10.0 µM
Each item that follows carries a reported kinase still bound, per cent of control.
MEASUREMENT LABEL: kinase still bound, per cent of control (%)

{"COMPOUND": "C=CC(=O)Nc1cccc(Oc2nc(Nc3ccc(N4CCN(C)CC4)cc3OC)ncc2Cl)c1", "MEASUREMENT LABEL": "kinase still bound, per cent of control", "NUMERIC VALUE": 0.45}
{"COMPOUND": "N#Cc1c(NC(=O)c2cccc3ccccc23)sc2c1CCCC2", "MEASUREMENT LABEL": "kinase still bound, per cent of control", "NUMERIC VALUE": 67}
{"COMPOUND": "Cn1c(=O)n(-c2ccc(C(C)(C)C#N)cc2)c2c3cc(-c4cnc5ccccc5c4)ccc3ncc21", "MEASUREMENT LABEL": "kinase still bound, per cent of control", "NUMERIC VALUE": 100}
{"COMPOUND": "COc1cc(C(=O)NC2CCN(C)CC2)ccc1Nc1ncc2c(n1)N(C1CCCC1)C(C)CC(=O)N2C (stereo not given)", "MEASUREMENT LABEL": "kinase still bound, per cent of control", "NUMERIC VALUE": 3.8}
{"COMPOUND": "C=CC(=O)Nc1cccc(Nc2nc(N[C@H]3CC[C@H](N(C)C)CC3)nc3c2ncn3C(C)C)c1", "MEASUREMENT LABEL": "kinase still bound, per cent of control", "NUMERIC VALUE": 44}
{"COMPOUND": "CCCS(=O)(=O)Nc1ccc(F)c(C(=O)c2c[nH]c3ncc(-c4ccc(Cl)cc4)cc23)c1F", "MEASUREMENT LABEL": "kinase still bound, per cent of control", "NUMERIC VALUE": 84}
{"COMPOUND": "CCOc1cc2ncc(C#N)c(Nc3ccc(OCc4ccccn4)c(Cl)c3)c2cc1NC(=O)/C=C/CN(C)C", "MEASUREMENT LABEL": "kinase still bound, per cent of control", "NUMERIC VALUE": 10}
{"COMPOUND": "Cc1ccc(NC(=O)c2cccc(C(C)(C)C#N)c2)cc1Nc1ccc2ncn(C)c(=O)c2c1", "MEASUREMENT LABEL": "kinase still bound, per cent of control", "NUMERIC VALUE": 99}
{"COMPOUND": "C[C@@H](Oc1cc(-n2cnc3ccc(CN4CCN(C)CC4)cc32)sc1C(N)=O)c1ccccc1C(F)(F)F", "MEASUREMENT LABEL": "kinase still bound, per cent of control", "NUMERIC VALUE": 100}
{"COMPOUND": "Cc1ccc(C(=O)Nc2cccc(C(F)(F)F)c2)cc1Nc1cncc(C(N)=O)c1", "MEASUREMENT LABEL": "kinase still bound, per cent of control", "NUMERIC VALUE": 100}
{"COMPOUND": "CN(C)C/C=C/C(=O)Nc1cccc(Nc2ncc3c(n2)N(C)c2ccccc2C(=O)N3C)c1", "MEASUREMENT LABEL": "kinase still bound, per cent of control", "NUMERIC VALUE": 13}
{"COMPOUND": "O=C1Nc2ccc(I)cc2/C1=C/c1cc(Br)c(O)c(Br)c1", "MEASUREMENT LABEL": "kinase still bound, per cent of control", "NUMERIC VALUE": 1.6}
{"COMPOUND": "Cc1ccc2nc(NCCN)c3ncc(C)n3c2c1", "MEASUREMENT LABEL": "kinase still bound, per cent of control", "NUMERIC VALUE": 79}
{"COMPOUND": "C=CC(=O)Nc1cc(NC(=O)c2ccc(C)c(NC(=O)c3ccno3)c2)cc(C(F)(F)F)c1", "MEASUREMENT LABEL": "kinase still bound, per cent of control", "NUMERIC VALUE": 100}
{"COMPOUND": "COc1cc(C(=O)NC2CCN(C)CC2)ccc1Nc1ncc2c(n1)N(C1CCCC1)CCC(=O)N2C(C)C", "MEASUREMENT LABEL": "kinase still bound, per cent of control", "NUMERIC VALUE": 100}

* * *

- TARGET OR SYSTEM: LCK (human)
- TEST: KINOMEscan competition binding
- COND: compound 10.0 µM

{"COMPOUND SMILES": "Nc1ccc(-c2ccc3ncc4ccc(=O)n(-c5cccc(C(F)(F)F)c5)c4c3c2)cn1", "UNIT STRING": "%", "kinase still bound, per cent of control": 100}
{"COMPOUND SMILES": "O=C1Nc2ccc(I)cc2/C1=C/c1cc(Br)c(O)c(Br)c1", "UNIT STRING": "%", "kinase still bound, per cent of control": 38}
{"COMPOUND SMILES": "CCOc1cc2ncc(C#N)c(Nc3ccc(OCc4ccccn4)c(Cl)c3)c2cc1NC(=O)/C=C/CN(C)C", "UNIT STRING": "%", "kinase still bound, per cent of control": 3.7}
{"COMPOUND SMILES": "Cc1ccc(C(=O)Nc2cccc(C(F)(F)F)c2)cc1Nc1cncc(C(N)=O)c1", "UNIT STRING": "%", "kinase still bound, per cent of control": 1.9}
{"COMPOUND SMILES": "Cc1ccc(NC(=O)c2cccc(C(C)(C)C#N)c2)cc1Nc1ccc2ncn(C)c(=O)c2c1", "UNIT STRING": "%", "kinase still bound, per cent of control": 0.7}
{"COMPOUND SMILES": "Cc1cc([C@@H](C)Nc2ccccc2C(=O)O)c2nc(N3CCOCC3)cc(=O)n2c1", "UNIT STRING": "%", "kinase still bound, per cent of control": 97}
{"COMPOUND SMILES": "C=CC(=O)Nc1cccc(Nc2nc(N[C@H]3CC[C@H](N(C)C)CC3)nc3c2ncn3C(C)C)c1", "UNIT STRING": "%", "kinase still bound, per cent of control": 38}
{"COMPOUND SMILES": "C=CC(=O)Nc1cccc(Oc2nc(Nc3ccc(N4CCN(C)CC4)cc3OC)ncc2Cl)c1", "UNIT STRING": "%", "kinase still bound, per cent of control": 100}
{"COMPOUND SMILES": "Cn1c(=O)n(-c2ccc(C(C)(C)C#N)cc2)c2c3cc(-c4cnc5ccccc5c4)ccc3ncc21", "UNIT STRING": "%", "kinase still bound, per cent of control": 100}
{"COMPOUND SMILES": "CCC(=O)N1CCN(c2ccc(-n3c(=O)ccc4cnc5ccc(-c6cnc7ccccc7c6)cc5c43)cc2C(F)(F)F)CC1", "UNIT STRING": "%", "kinase still bound, per cent of control": 77}
{"COMPOUND SMILES": "O=C(NC1CC1)c1cccc(-c2ccc3c(NC(=O)C4CC4)n[nH]c3c2)c1", "UNIT STRING": "%", "kinase still bound, per cent of control": 100}
{"COMPOUND SMILES": "CC[C@@H]1C(=O)N(C)c2cnc(Nc3ccc(C(=O)NC4CCN(C)CC4)cc3OC)nc2N1C1CCCC1", "UNIT STRING": "%", "kinase still bound, per cent of control": 100}
{"COMPOUND SMILES": "CCCS(=O)(=O)Nc1ccc(F)c(C(=O)c2c[nH]c3ncc(-c4ccc(Cl)cc4)cc23)c1F", "UNIT STRING": "%", "kinase still bound, per cent of control": 1.6}
{"COMPOUND SMILES": "COc1cc(N2CCN(C)CC2)ccc1Nc1nc(N)c(C(=O)c2c(Cl)cccc2Cl)s1", "UNIT STRING": "%", "kinase still bound, per cent of control": 86}
{"COMPOUND SMILES": "CCN1CCN(Cc2ccc(Nc3ncc4c(n3)N(C)c3ccccc3C(=O)N4C)cc2C(F)(F)F)CC1", "UNIT STRING": "%", "kinase still bound, per cent of control": 5}
{"COMPOUND SMILES": "N#Cc1c(NC(=O)c2cccc3ccccc23)sc2c1CCCC2", "UNIT STRING": "%", "kinase still bound, per cent of control": 85}
